ka values by entry
Biological target: T1, human IL-22 (Homo sapiens, UniProt Q9GZX6)
T1 sequence (Q9GZX6 34-179): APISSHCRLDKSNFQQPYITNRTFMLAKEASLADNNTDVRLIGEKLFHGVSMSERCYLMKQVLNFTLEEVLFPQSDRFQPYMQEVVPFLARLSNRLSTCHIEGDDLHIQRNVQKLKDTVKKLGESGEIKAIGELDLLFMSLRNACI
Assay: SPR capture assay, affinity to human IL-22
Type: binding
Settings: human IL-22, SPR
Quantity kind: ka

1) CPS17: mutant anti-IL-22 antibody binding human and mouse IL-22; light chain LC-04, heavy chain HC-49 (antibody, V domains shown) VH: QVQLVQSGAEVKKPGASVKVSCKASGYIFRSYWIHWIRQPPGKGLEWIGRIYPGTGNTYYNRKFKGRVTISADKSISTAYLQWSSLKASDTAMYYCARSYMYSVAYWGQGTLVTVSS VL: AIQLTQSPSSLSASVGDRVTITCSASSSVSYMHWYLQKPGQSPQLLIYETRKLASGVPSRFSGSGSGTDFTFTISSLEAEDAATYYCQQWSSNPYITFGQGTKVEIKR	1.33e+06 M·s
2) CPS14 (antibody, V domains shown) VH: QVQLVQSGAEVKKPGASVKVSCKASGYIFTSYWIHWIRQPPGKGLEWIGRIYPGTGRTYYNRKFKGRVTISADKSISTAYLQWSSLKASDTAMYYCARSYDYSVAYWGQGTLVTVSS VL: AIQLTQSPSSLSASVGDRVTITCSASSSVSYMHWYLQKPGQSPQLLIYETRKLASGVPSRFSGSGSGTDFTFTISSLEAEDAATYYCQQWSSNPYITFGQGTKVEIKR	1.13e+06 M·s
3) LC-E049K: one of the mutant antibodies in the CPE library, used as a control (antibody, V domains shown) VH: QVQLVQSGAEVKKPGASVKVSCKASGYIFTSYWIHWIRQPPGKGLEWIGRIYPGTGNTYYNEKFKGRVTISADKSISTAYLQWSSLKASDTAMYYCARSYDSSCAYWGQGTLVTVSS VL: AIQLTQSPSSLSASVGDRVTITCSASSSVSYMHWYLQKPGQSPQLLIYKTSKLASGVPSRFSGSGSGTDFTFTISSLEAEDAATYYCQQWSSNPYITFGQGTKVEIKR	381000 M·s

All figures here come from patent US11834472B2.
